system: SK-OV-3; test: Cytotoxicity against human SKOV3 cells by MTT assay; assay type: functional, cell-based
Listed molecules paired with reported pIC50
Keep in mind that pIC50 stands for -log10 of concentration in molar terms.

Examples with answers:
| MOLECULAR STRING | pIC50 |
| --- | --- |
| COc1ccc(Cn2c3ccccc3c3cc[n+](Cc4ccccc4)cc32)cc1.[Br-] | 4.70 |
| Fc1ccc(Cn2c3ccccc3c3cc[n+](Cc4ccccc4)cc32)cc1 | 4.98 |
| Cn1c2ccccc2c2cc[n+](Cc3ccccc3)cc21 | 4.26 |
| c1ccc(CCCn2c3ccccc3c3cc[n+](CCCc4ccccc4)cc32)cc1 | 4.97 |
| c1ccc(CCCn2c3ccccc3c3cc[n+](CCc4ccccc4)cc32)cc1 | 5.08 |

Short answer please: pIC50, SK-OV-3, entry `CCCCCCn1c2ccccc2c2cc[n+](Cc3ccccc3)cc21`
5.14

Same thing, different molecule: `Clc1cccc(Cn2c3ccccc3c3cc[n+](Cc4ccccc4)cc32)c1`
5.10

Same thing, different molecule: `CCn1c2ccccc2c2cc[n+](Cc3ccccc3)cc21`
4.56

Same thing, different molecule: `CCCCCCCCn1c2ccccc2c2cc[n+](Cc3ccccc3)cc21`
5.49

Same thing, different molecule: `Fc1ccc(C[n+]2ccc3c4ccccc4n(CCCc4ccccc4)c3c2)cc1.[Cl-]`
4.91

Same thing, different molecule: `CCCCn1c2ccccc2c2cc[n+](Cc3ccccc3)cc21`
5.33

Same thing, different molecule: `COc1ccc(-c2c3c(cc[n+]2Cc2ccccc2)c2ccccc2n3CCCc2ccccc2)cc1.[Br-]`
5.28

Same thing, different molecule: `Cc1c2c(cc[n+]1Cc1ccccc1)c1ccccc1n2CCCc1ccccc1.[Br-]`
5.12

Same thing, different molecule: `c1ccc(Cn2c3ccccc3c3cc[n+](Cc4ccccc4)cc32)cc1`
4.77

Same thing, different molecule: `c1ccc(CCCn2c3ccccc3c3cc[n+](Cc4ccccc4)c(-c4ccsc4)c32)cc1`
4.84

Same thing, different molecule: `C=CCn1c2ccccc2c2cc[n+](Cc3ccccc3)cc21`
4.90

Same thing, different molecule: `[Br-].c1ccc(CCCn2c3ccccc3c3cc[n+](Cc4ccccc4)cc32)cc1`
5.36

Same thing, different molecule: `CCCC[n+]1ccc2c3ccccc3n(CCCc3ccccc3)c2c1`
4.80

Same thing, different molecule: `CCCCCCCC[n+]1ccc2c3ccccc3n(CCCc3ccccc3)c2c1`
5.23

Same thing, different molecule: `CC(C)n1c2ccccc2c2cc[n+](Cc3ccccc3)cc21`
5.18

Same thing, different molecule: `CCCCCCCCCC[n+]1ccc2c3ccccc3n(CCCc3ccccc3)c2c1`
4.24

Same thing, different molecule: `CC(C)Cn1c2ccccc2c2cc[n+](Cc3ccccc3)cc21`
4.56

Same thing, different molecule: `O=[N+]([O-])c1ccc(C[n+]2ccc3c4ccccc4n(CCCc4ccccc4)c3c2)cc1`
4.76

Same thing, different molecule: `Clc1cccc(C[n+]2ccc3c4ccccc4n(CCCc4ccccc4)c3c2)c1.[Br-]`
4.86
